Origin of values: patent US11535643B2

// reported MIC for each item listed
# Tested on: E. coli
# method notes: Broth dilution MIC determination (CLSI) against E. coli strains
# Type: cell-based
# condition: Escherichia coli, ATCC25922, ATCC25922; read-out: MIC E. coli ATCC25922

Look over these answered cases.
CC[C@H]1OC(=O)[C@H](C)C(=O)[C@H](C)[C@@H](O[C@@H]2OC(CNC=N)CC(N(C)C)C2O)[C@](C)(OC)C[C@@H](C)CN[C@H](C)[C@H]2N(CCCCn3cc(-c4cccc(N)c4)nn3)C(=O)O[C@]12C (stereo partly shown) :: > 32 µg/mL
CC[C@H]1OC(=O)[C@H](C)C(=O)[C@H](C)[C@@H](O[C@@H]2OC(Cn3cc(-c4ccccn4)nn3)CC(N(C)C)C2O)[C@](C)(OC)C[C@@H](C)CN[C@H](C)[C@H]2N(CCCCn3cc(-c4cccc(N)c4)nn3)C(=O)O[C@]12C (stereo partly shown) :: 16 µg/mL
CC[C@H]1OC(=O)[C@@](C)(F)C(=O)[C@H](C)[C@@H](O[C@@H]2O[C@H](C)C[C@H](N(C)C)[C@H]2O)[C@](C)(OC)C[C@@H](C)C(=O)[C@H](C)[C@H]2N(CCCCn3cc(-c4cccc(N)c4)nn3)C(=O)O[C@]12C [Solithromycin, solithromycin, reference compound] :: 32 µg/mL

Consider the additional compound presented here.
input: So what's the measured MIC for this one? CC[C@H]1OC(=O)[C@H](C)C(=O)[C@H](C)[C@@H](O[C@@H]2OC(CN)CC(N(C)C)C2O)[C@](C)(OC)C[C@@H](C)CN[C@H](C)[C@H]2N(CCCCn3cc(-c4cccc(N)c4)nn3)C(=O)O[C@]12C (stereo partly shown)
output: 32 µg/mL

====

// reported MIC for each item listed
# Test system: S. aureus
# method notes: Broth dilution MIC determination (CLSI) against S. aureus strains
# Assay type: cell-based
# condition: Staphylococcus aureus, read-out: MIC S. aureus erm A genotype

CC[C@H]1OC(=O)[C@H](C)[C@@H](O[C@H]2C[C@@](C)(OC)[C@@H](O)[C@H](C)O2)[C@H](C)[C@@H](O[C@@H]2O[C@H](C)C[C@H](N(C)C)[C@H]2O)[C@](C)(O)C[C@@H](C)CN(C)[C@H](C)[C@@H](O)[C@]1(C)O [Azithromycin, azithromycin, reference compound] :: > 32 µg/mL

Consider the additional molecule presented here.
input: So what's the measured MIC for this one? C=CCOC(=O)NCC1CC(N(C)C)C(O)[C@H](O[C@@H]2[C@@H](C)C(=O)[C@@H](C)C(=O)O[C@H](CC)[C@@]3(C)OC(=O)N(CCCCn4cc(-c5cccc(N)c5)nn4)[C@@H]3[C@@H](C)NC[C@H](C)C[C@@]2(C)OC)O1 (some centres unmarked)
output: > 32 µg/mL

====

# Test system: K. pneumoniae
# method notes: Broth dilution MIC determination (CLSI) against K. pneumoniae strains
# Assay type: cell-based
# condition: Klebsiella pneumoniae, ATCC10031, ATCC10031; read-out: MIC K. pneumoniae ATCC10031
observable: MIC
Include the unit after the number when you answer.

Look over these answered cases.
CC[C@H]1OC(=O)[C@H](C)C(=O)[C@H](C)[C@@H](O[C@@H]2OC(CNC(=O)CN)CC(N(C)C)C2O)[C@](C)(OC)C[C@@H](C)CN[C@H](C)[C@H]2N(CCCCn3cc(-c4cccc(N)c4)nn3)C(=O)O[C@]12C (some centres unmarked) :: 16 µg/mL
CC[C@H]1OC(=O)[C@H](C)C(=O)[C@H](C)[C@@H](O[C@@H]2OC(Cn3cc(-c4cccc(N)n4)nn3)CC(N(C)C)C2O)[C@](C)(OC)C[C@@H](C)CN[C@H](C)[C@H]2N(CCCCn3cc(-c4cccc(N)c4)nn3)C(=O)O[C@]12C (some centres unmarked) :: 4 µg/mL
CC[C@H]1OC(=O)[C@H](C)C(=O)[C@H](C)[C@@H](O[C@@H]2OC(CN)CC(N(C)C)C2O)[C@](C)(OC)C[C@@H](C)CN[C@H](C)[C@H]2N(CCCCn3cc(-c4cccc(N)c4)nn3)C(=O)O[C@]12C (some centres unmarked) :: 4 µg/mL
CC[C@H]1OC(=O)[C@H](C)C(=O)[C@H](C)[C@@H](O[C@@H]2OC(CNC(=O)C(Cl)Cl)CC(N(C)C)C2O)[C@](C)(OC)C[C@@H](C)CN[C@H](C)[C@H]2N(CCCCn3cc(-c4cccc(N)c4)nn3)C(=O)O[C@]12C (some centres unmarked) :: 4 µg/mL
CC[C@H]1OC(=O)[C@H](C)C(=O)[C@H](C)[C@@H](O[C@@H]2OC(Cn3cc(-c4cnc(N)s4)nn3)CC(N(C)C)C2O)[C@](C)(OC)C[C@@H](C)CN[C@H](C)[C@H]2N(CCCCn3cc(-c4cccc(N)c4)nn3)C(=O)O[C@]12C (some centres unmarked) :: 32 µg/mL
CC[C@H]1OC(=O)[C@H](C)C(=O)[C@H](C)[C@@H](O[C@@H]2OC(CN(C)C)CC(N(C)C)C2O)[C@](C)(OC)C[C@@H](C)CN(C)[C@H](C)[C@H]2N(CCCCn3cc(-c4cccc(N)c4)nn3)C(=O)O[C@]12C (some centres unmarked) :: 8 µg/mL
CC[C@H]1OC(=O)[C@@](C)(F)C(=O)[C@H](C)[C@@H](O[C@@H]2O[C@H](C)C[C@H](N(C)C)[C@H]2O)[C@](C)(OC)C[C@@H](C)C(=O)[C@H](C)[C@H]2N(CCCCn3cc(-c4cccc(N)c4)nn3)C(=O)O[C@]12C [Solithromycin, solithromycin, reference compound] :: 8 µg/mL
CC[C@H]1OC(=O)[C@H](C)C(=O)[C@H](C)[C@@H](O[C@@H]2OC(Cn3cc(-c4ccccn4)nn3)CC(N(C)C)C2O)[C@](C)(OC)C[C@@H](C)CN[C@H](C)[C@H]2N(CCCCn3cc(-c4cccc(N)c4)nn3)C(=O)O[C@]12C (some centres unmarked) :: 8 µg/mL

input: So what's the measured MIC for this one? CC[C@H]1OC(=O)[C@H](C)C(=O)[C@H](C)[C@@H](O[C@@H]2OC(CNS(=O)(=O)c3cccnc3)CC(N(C)C)C2O)[C@](C)(OC)C[C@@H](C)CN[C@H](C)[C@H]2N(CCCCn3cc(-c4cccc(N)c4)nn3)C(=O)O[C@]12C (some centres unmarked)
output: 16 µg/mL

input: Repeat with CC[C@H]1OC(=O)[C@H](C)C(=O)[C@H](C)[C@@H](O[C@@H]2OC(CNC(=O)c3cnccn3)CC(N(C)C)C2O)[C@](C)(OC)C[C@@H](C)CN[C@H](C)[C@H]2N(CCCCn3cc(-c4cccc(N)c4)nn3)C(=O)O[C@]12C (some centres unmarked)
output: 8 µg/mL

input: Repeat with CC[C@H]1OC(=O)[C@H](C)C(=O)[C@H](C)[C@@H](O[C@@H]2OC(CNC(=O)CNC(C)(C)C)CC(N(C)C)C2O)[C@](C)(OC)C[C@@H](C)CN[C@H](C)[C@H]2N(CCCCn3cc(-c4cccc(N)c4)nn3)C(=O)O[C@]12C (some centres unmarked)
output: 8 µg/mL

input: Repeat with CC[C@H]1OC(=O)[C@H](C)C(=O)[C@H](C)[C@@H](O[C@@H]2OC(CNC(=O)c3ccccn3)CC(N(C)C)C2O)[C@](C)(OC)C[C@@H](C)CN[C@H](C)[C@H]2N(CCCCn3cc(-c4cccc(N)c4)nn3)C(=O)O[C@]12C (some centres unmarked)
output: 8 µg/mL

input: Repeat with CC[C@H]1OC(=O)[C@H](C)C(=O)[C@H](C)[C@@H](O[C@@H]2OC(CNC(=N)N)CC(N(C)C)C2O)[C@](C)(OC)C[C@@H](C)CN[C@H](C)[C@H]2N(CCCCn3cc(-c4cccc(N)c4)nn3)C(=O)O[C@]12C (some centres unmarked)
output: 32 µg/mL

input: Repeat with C=CCOC(=O)NCC1CC(N(C)C)C(O)[C@H](O[C@@H]2[C@@H](C)C(=O)[C@@H](C)C(=O)O[C@H](CC)[C@@]3(C)OC(=O)N(CCCCn4cc(-c5cccc(N)c5)nn4)[C@@H]3[C@@H](C)NC[C@H](C)C[C@@]2(C)OC)O1 (some centres unmarked)
output: 8 µg/mL

====

# Tested on: S. pneumoniae
# method notes: Broth dilution MIC determination (CLSI) against S. pneumoniae strains
# Assay type: cell-based
# condition: Streptococcus pneumoniae, erm B + mef A genotype; read-out: MIC S. pneumoniae erm B + mef A genotype
observable: log10 MIC (log10 of the value in µg/mL)
The base-10 logarithm of MIC, taken with MIC in µg/mL, is what appears here.

CC[C@H]1OC(=O)[C@H](C)C(=O)[C@H](C)[C@@H](O[C@@H]2OC(CN(CCN)CCN)CC(N(C)C)C2O)[C@](C)(OC)C[C@@H](C)CN[C@H](C)[C@H]2N(CCCCn3cc(-c4cccc(N)c4)nn3)C(=O)O[C@]12C (some centres unmarked) :: 1.51
CC[C@H]1OC(=O)[C@H](C)C(=O)[C@H](C)[C@@H](O[C@@H]2OC(CN(C)C)CC(N(C)C)C2O)[C@](C)(OC)C[C@@H](C)CN(C)[C@H](C)[C@H]2N(CCCCn3cc(-c4cccc(N)c4)nn3)C(=O)O[C@]12C (some centres unmarked) :: 1.51
CC[C@H]1OC(=O)[C@@](C)(F)C(=O)[C@H](C)[C@@H](O[C@@H]2O[C@H](C)C[C@H](N(C)C)[C@H]2O)[C@](C)(OC)C[C@@H](C)C(=O)[C@H](C)[C@H]2N(CCCCn3cc(-c4cccc(N)c4)nn3)C(=O)O[C@]12C [Solithromycin, solithromycin, reference compound] :: -0.60
CC[C@H]1OC(=O)[C@H](C)C(=O)[C@H](C)[C@@H](O[C@@H]2OC(CNC(=N)N)CC(N(C)C)C2O)[C@](C)(OC)C[C@@H](C)CN[C@H](C)[C@H]2N(CCCCn3cc(-c4cccc(N)c4)nn3)C(=O)O[C@]12C (some centres unmarked) :: 1.51
CC[C@H]1OC(=O)[C@H](C)C(=O)[C@H](C)[C@@H](O[C@@H]2OC(CN)CC(N(C)C)C2O)[C@](C)(OC)C[C@@H](C)CN[C@H](C)[C@H]2N(CCCCn3cc(-c4cccc(N)c4)nn3)C(=O)O[C@]12C (some centres unmarked) :: 1.20

input: Under S. pneumoniae: log10 MIC value of CC[C@H]1OC(=O)[C@H](C)C(=O)[C@H](C)[C@@H](O[C@@H]2OC(CNS(=O)(=O)c3cccnc3)CC(N(C)C)C2O)[C@](C)(OC)C[C@@H](C)CN[C@H](C)[C@H]2N(CCCCn3cc(-c4cccc(N)c4)nn3)C(=O)O[C@]12C (some centres unmarked) ?
output: 0.90

input: Repeat with CC[C@H]1OC(=O)[C@H](C)C(=O)[C@H](C)[C@@H](O[C@@H]2OC(CNC(=O)c3ccccn3)CC(N(C)C)C2O)[C@](C)(OC)C[C@@H](C)CN[C@H](C)[C@H]2N(CCCCn3cc(-c4cccc(N)c4)nn3)C(=O)O[C@]12C (some centres unmarked)
output: 0.00

input: Repeat with CC[C@H]1OC(=O)[C@H](C)C(=O)[C@H](C)[C@@H](O[C@@H]2OC(Cn3cc(-c4cccc(N)n4)nn3)CC(N(C)C)C2O)[C@](C)(OC)C[C@@H](C)CN[C@H](C)[C@H]2N(CCCCn3cc(-c4cccc(N)c4)nn3)C(=O)O[C@]12C (some centres unmarked)
output: -0.30

input: Repeat with CC[C@H]1OC(=O)[C@H](C)C(=O)[C@H](C)[C@@H](O[C@@H]2OC(CNC(=O)C(Cl)Cl)CC(N(C)C)C2O)[C@](C)(OC)C[C@@H](C)CN[C@H](C)[C@H]2N(CCCCn3cc(-c4cccc(N)c4)nn3)C(=O)O[C@]12C (some centres unmarked)
output: 0.90

input: Repeat with CC[C@H]1OC(=O)[C@H](C)C(=O)[C@H](C)[C@@H](O[C@@H]2OC(CNC(=O)CNC(C)(C)C)CC(N(C)C)C2O)[C@](C)(OC)C[C@@H](C)CN[C@H](C)[C@H]2N(CCCCn3cc(-c4cccc(N)c4)nn3)C(=O)O[C@]12C (some centres unmarked)
output: 0.00

input: Repeat with CC[C@H]1OC(=O)[C@H](C)C(=O)[C@H](C)[C@@H](O[C@@H]2OC(CNC(=O)c3cnccn3)CC(N(C)C)C2O)[C@](C)(OC)C[C@@H](C)CN[C@H](C)[C@H]2N(CCCCn3cc(-c4cccc(N)c4)nn3)C(=O)O[C@]12C (some centres unmarked)
output: 0.60

input: Repeat with CC[C@H]1OC(=O)[C@H](C)C(=O)[C@H](C)[C@@H](O[C@@H]2OC(CNC(=O)c3cc[nH]n3)CC(N(C)C)C2O)[C@](C)(OC)C[C@@H](C)CN[C@H](C)[C@H]2N(CCCCn3cc(-c4cccc(N)c4)nn3)C(=O)O[C@]12C (some centres unmarked)
output: 0.30

input: Repeat with CC[C@H]1OC(=O)[C@H](C)C(=O)[C@H](C)[C@@H](O[C@@H]2OC(CNC(=O)CN)CC(N(C)C)C2O)[C@](C)(OC)C[C@@H](C)CN[C@H](C)[C@H]2N(CCCCn3cc(-c4cccc(N)c4)nn3)C(=O)O[C@]12C (some centres unmarked)
output: 0.60

input: Repeat with CC[C@H]1OC(=O)[C@H](C)C(=O)[C@H](C)[C@@H](O[C@@H]2OC(CNC(=O)c3ccccc3)CC(N(C)C)C2O)[C@](C)(OC)C[C@@H](C)CN[C@H](C)[C@H]2N(CCCCn3cc(-c4cccc(N)c4)nn3)C(=O)O[C@]12C (some centres unmarked)
output: 0.00
